Origin of measurements: ChEMBL document CHEMBL1201862

system: HCT-15
Output class 1 for records whose GI50 is lower than 20 µM, class 0 for records at or above 20 µM.

>>> print(df.to_string())
                                   compound  assigned_class
0  COc1cc2c(cc1OC(=O)c1cc3ccccc3[nH]1)N=C[C@@H]1CCCN1C2=O         class 1
1  CCOC(=O)c1ccc2nc(-c3ccc(S(=O)(=O)F)cc3)cc(O)c2c1         class 0
2  Cc1c(/C=N\NC(=S)NCCNC(=S)N/N=C\c2c(C)n(C)n(-c3ccccc3)c2=O)c(=O)n(-c2ccccc2)n1C         class 0
3  COC(=O)c1c2c(cc3c1CC1(Cc4cc5c(c(C)c4C1)CCC5)C3)CCC2 (stereo not drawn)         class 0

Does FC1(F)[Se]C2C3CCC(C3)C2C1(F)F (stereo not drawn) have GI50 strictly under 20 µM? class 0

Does CC(C)(C)/N=c1/n(C(C)(C)C)oc(=O)n1-c1ccccc1 have GI50 strictly under 20 µM? class 0

Does CCOC(=O)c1ccc2c(c1)nc1n2C(c2c(F)cccc2F)SC1 (stereo not drawn) have GI50 strictly under 20 µM? class 0

Does CCOC(=O)NC(=O)c1cn(CCSCCOC(=O)NCCCCCCNC(=O)OCCSCCn2cc(C(=O)NC(=O)OCC)c(=O)n(C)c2=O)c(=O)n(C)c1=O have GI50 strictly under 20 µM? class 0
